Reference source: patent US9511073B2

MIC for assorted molecules
test system: FtsZ-G196A Staphylococcus aureus (Isolate ID GG/190723/sa/1.2); assay: Bacterial assay: MIC, FtsZ G196A mutant strain; format: cell-based; details: read-out: MIC (μg/mL) G196A mutant strain
Give the number; µg/mL is assumed, so skip it.

Below, 3 molecules whose answers are already recorded.
{"columns": ["molecule", "unit-annotation", "experimental-result"],
 "data": [
  ["COc1ccc(-c2nc(C(C)Oc3ccc(F)c(C(N)=O)c3F)oc2Br)cc1 (racemic)", "µg/mL", 32],
  ["NC(=O)c1c(F)ccc(O[C@@H](CO)c2nc(-c3ccc(C(F)(F)F)cc3)c(Br)o2)c1F (single isomer, unassigned) [Compound 38A]", "µg/mL", 64],
  ["NC(=O)c1c(F)ccc(OC(CO)c2nc(-c3ccc(C(F)(F)F)cc3)c(Br)o2)c1F (racemic)", "µg/mL", 4]
]}

Task: Lab request: please report MIC under test system FtsZ-G196A Staphylococcus aureus (Isolate ID GG/190723/sa/1.2) for NC(=O)c1c(F)ccc(O[C@H](CO)c2nc(-c3ccc(F)cc3F)c(Br)o2)c1F [Compound 233B]
Result: 8

Task: Please do the same for NC(=O)c1c(F)ccc(OC(CO)c2nc(-c3ccc(F)cc3F)c(Br)o2)c1F (racemic) as well.
Result: 8

Task: Please do the same for NC(=O)c1c(F)ccc(O[C@H](CO)c2nc(-c3ccc(C(F)(F)F)cc3)c(Br)o2)c1F (single isomer, unassigned) [Compound 38B] as well.
Result: 2

Task: Please do the same for COc1ccc(-c2nc([C@@H](C)Oc3ccc(F)c(C(N)=O)c3F)oc2Br)cc1 as well.
Result: 16

====

test system: Staphylococcus aureus (Isolate ID ATCC 29213); assay: Bacterial assay: MIC by broth microdilution or agar dilution (CLSI), S. aureus ATCC 29213; assay type: cell-based; details: Staphylococcus aureus, ATCC29213, read-out: S. aureus MIC (μg/mL) Activity Range, S. aureus (ATCC29213)
endpoint-label: MIC

Below, 10 molecules whose answers are already recorded.
{"columns": ["molecule", "MIC"],
 "data": [
  ["COc1ccc(-c2nc(C(CO)Oc3ccc(F)c(C(N)=O)c3F)oc2Br)c(F)c1 (stereo not drawn)", "0.25 to 1 µg/mL"],
  ["COc1cccc(-c2nc(C(CO)Oc3ccc(F)c(C(N)=O)c3F)oc2Br)c1 (stereo not drawn)", "> 16 µg/mL"],
  ["Cc1ccc(CNC(=O)OCC(Oc2ccc(F)c(C(N)=O)c2F)c2nc(-c3ccc(C(F)(F)F)cc3)c(Br)o2)n1C (stereo not drawn)", "0.25 to 1 µg/mL"],
  ["Cc1noc(C(Oc2ccc(F)c(C(N)=O)c2F)c2nc(-c3ccc(C(F)(F)F)cc3)co2)n1 (stereo not drawn)", "> 16 µg/mL"],
  ["CS(=O)(=O)OCC(Oc1ccc(F)c(C(N)=O)c1F)c1nc(-c2ccc(Cl)cc2)c(Cl)o1 (stereo not drawn)", "1 to 16 µg/mL"],
  ["CS(=O)(=O)N1CCN(C(=O)OCC(Oc2ccc(F)c(C(N)=O)c2F)c2nc(-c3ccc(C(F)(F)F)cc3)c(Br)o2)C1=O (stereo not drawn)", "1 to 16 µg/mL"],
  ["NC(=O)c1c(F)ccc(OC(C(=O)O)c2nc(-c3ccc(Cl)cc3)c(Cl)o2)c1F (stereo not drawn)", "> 16 µg/mL"],
  ["COc1ccc(-c2nc([C@H](C)Oc3ccc(F)c(C(N)=O)c3F)oc2Br)cc1", "1 to 16 µg/mL"],
  ["NC(=O)c1c(F)ccc(O[C@H](CO)c2nc(-c3ccc(C(F)(F)F)cc3)co2)c1F [Compound 272B]", "1 to 16 µg/mL"],
  ["NC(=O)c1c(F)ccc(OC(CNC(=O)c2cccnc2)c2nc(-c3ccc(C(F)(F)F)cc3)co2)c1F (stereo not drawn)", "> 16 µg/mL"]
]}

Task: Name the recorded MIC for C[C@@H](Oc1ccc(F)c(C(N)=O)c1F)c1nc(-c2ccc(C(F)(F)F)cc2)co1 .
Result: 1 to 16 µg/mL

Task: Please do the same for Cc1nc(-c2ccc(-c3nc(C(CO)Oc4ccc(F)c(C(N)=O)c4F)oc3Br)cc2)no1 (stereo not drawn) as well.
Result: 1 to 16 µg/mL

Task: Please do the same for CC(Oc1ccc(F)c(C(N)=O)c1F)c1nc(-c2cnc(C(F)(F)F)nc2)c(Cl)o1 (stereo not drawn) as well.
Result: 1 to 16 µg/mL

Task: Please do the same for NC(=O)c1c(F)ccc(OC(CO)c2nc(-c3ccc(C(F)(F)F)cc3)c(Cl)o2)c1F (stereo not drawn) as well.
Result: 0.25 to 1 µg/mL

Task: Please do the same for NC(=O)c1c(F)ccc(OC(COCCN2CCOCC2)c2nc(-c3ccc(C(F)(F)F)cc3)c(Br)o2)c1F (stereo not drawn) as well.
Result: 1 to 16 µg/mL
